Origin of measurements: the RNAGym collection of RNA variant scans (doi:10.7554/elife.80360)

Please go through the items and note down their self-cleavage.
B1: Hairpin Ribozyme (parent)
chain: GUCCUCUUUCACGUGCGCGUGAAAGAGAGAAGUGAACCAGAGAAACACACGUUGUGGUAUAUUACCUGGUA

Variants of: B1
Experiment: self-cleavage, relative activity (ratio to wild type); higher = more cleavage; co-transcriptional
Enter the number alone.

A41C G42A has a reported self-cleavage of 0.805

C4A A59G has a reported self-cleavage of 0.145

C50G U60G has a reported self-cleavage of 0.158
